- assayText: gradient 5% acetonitrile 3 min, to 50% in 2 min, to 85% in 15 min, held 3 min, 100 µL/min
- experimentalParameters: column: Zorbax Extend-C18 2.1 x 50 mm; eluents: water / acetonitrile, 0.1% formic acid
Collected RP-LC retention time values appear next to each entry.
Write down the numeric answer in s and omit the unit.

molecule="CCOc1ccccc1NC(=O)C1CCN(S(=O)(=O)c2ccc3c(c2)NC(=O)C(CC)O3)CC1 (centres undefined)" readoutlabel="RP-LC retention time" unittag=s observedvalue=953

What the record says about O=C(c1ccsc1)N1CCC(N(C(=O)Cc2ccccc2)C2CCOCC2)CC1 : RP-LC retention time is 774

What the record says about Cc1cccc(N2C(=O)C(O)=C(C(=O)c3cccs3)C2c2ccc(Cl)cc2)n1 (centres undefined) : RP-LC retention time is 1040

What the record says about CC(=O)N1CCc2ccccc2C1C(=O)NCc1cc(F)ccc1F (centres undefined) : RP-LC retention time is 648

What the record says about COC(=O)c1ncn2c1C(=O)N(Cc1ccc(C)cc1)C(C)(C(=O)NC1CCCC1)C2 (centres undefined) : RP-LC retention time is 766

What the record says about CCCn1nnc2cc(S(=O)(=O)N3CCCC(C(=O)N4CCN(c5ccccn5)CC4)C3)ccc21 (centres undefined) : RP-LC retention time is 652

* * *

- assayText: gradient 5% acetonitrile 3 min, to 50% in 2 min, to 85% in 15 min, held 3 min, 100 µL/min
- experimentalParameters: column: Zorbax Extend-C18 2.1 x 50 mm; eluents: water / acetonitrile, 0.1% formic acid
readoutLabel: RP-LC retention time (s)
Write down the numeric answer in s and omit the unit.

// below: answered compounds
compound=Cc1ccc(N2CCN(C(=O)C3=CCN(Cc4cccc(C)c4)CC3)CC2)cc1 unittag=s observedvalue=697
compound=CCc1noc(NC(C)=O)c1-c1ccc(OC)c(S(=O)(=O)Nc2ccccc2OC)c1 unittag=s observedvalue=791
compound="COc1ccc(-n2nc3c(N4CCCC(C(=O)NCc5ccccn5)C4)nnc(C)c3c2C)cc1 (centres undefined)" unittag=s observedvalue=591

What the record says about Cn1c(=O)c(N2CCC(NC(=O)Nc3ccccc3F)CC2)nc2ccccc21 : RP-LC retention time is 910

What the record says about CCCCN1C(=O)C(NC(=O)CCc2ccccc2)(C(F)(F)F)C(C(=O)OC)=C1C (centres undefined) : RP-LC retention time is 1030

What the record says about COc1ccc(S(=O)(=O)N2CCCC(C(=O)N3CCCC3)C2)cc1C (centres undefined) : RP-LC retention time is 806

* * *

- assayText: gradient 5% acetonitrile 3 min, to 50% in 2 min, to 85% in 15 min, held 3 min, 100 µL/min
- experimentalParameters: column: Zorbax Extend-C18 2.1 x 50 mm; eluents: water / acetonitrile, 0.1% formic acid
Collected RP-LC retention time values appear next to each entry.
Write down the numeric answer in s and omit the unit.

// below: answered compounds
compound=Cn1ncc2c3ccccc3n(CC(=O)NC3CCN(Cc4ccccc4)CC3)c2c1=O observedvalue=624
compound="CC1CN(C(=O)CCC(=O)NC2CCN(Cc3ccccc3)CC2)c2cc(Cl)ccc2O1 (stereo not given)" observedvalue=694
compound="CC(=O)N1CCc2cc(N3CC(C(=O)NCc4ccccc4C)CC3=O)ccc21 (stereo not given)" observedvalue=707

What the record says about CC1Oc2ccccc2OC1C(=O)Nc1cccc(C(F)(F)F)c1 (stereo not given) : RP-LC retention time is 1050

What the record says about Cc1ccc(-c2csc(NC(=O)CCc3nc(CSc4nc5cc(C)ccc5o4)no3)n2)cc1 : RP-LC retention time is 1210

Value source: the METLIN SMRT retention time set (Domingo-Almenara et al. 2019)
